assay: Solubility at pH 6.5 and pH 4.3 (water-solubility)
experimental.conditions: water (aqueous medium; buffer not named), pH 6.5, aqueous buffer
measured.property: solubility (µg/mL)

compound: CN1CCN([C@H]2CCN(C(=O)c3cc(C(F)(F)F)cc(C(F)(F)F)c3)C[C@H]2c2ccc(F)cc2)CC1 (racemic) [Example 45]
solubility (µg/mL): 1000
//
compound: O=C(c1cc(C(F)(F)F)cc(C(F)(F)F)c1)N1CCC(N2CCC(O)CC2)C(c2ccc(Cl)cc2)C1 (racemic) [Example 63]
solubility (µg/mL): 780
//
compound: CN1CCN([C@H]2CCN(C(=O)c3cc(C(F)(F)F)cc(C(F)(F)F)c3)C[C@H]2c2ccccc2)CC1 (racemic) [Example 27]
solubility (µg/mL): 910
